- system name: T1, RBFOX1 RRM (Homo sapiens, UniProt Q9NWB1 109-208)
- T1 sequence: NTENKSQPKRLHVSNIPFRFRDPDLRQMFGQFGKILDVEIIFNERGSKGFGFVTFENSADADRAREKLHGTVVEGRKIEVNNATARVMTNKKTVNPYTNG
- run description: EMSA; HiTS-Eq, 1 nM pool, 10 min; buffer printed only for the single-RNA assays: 10 mM Tris pH 7.5, 150 mM NaCl, 3.4 mM EDTA, 0.001% NP-40, 30 C
- measurement parameters: tags: His6 N-terminal (pET28a); label: 5' 32P
Over roughly 16,000 sequences, “ka relative to ugcaugu” has its median near 0.0091; the highest 2% begin near 0.032. The full list was thinned out, with the highest values kept by preference.
property: binding signal

Entry UCUCGCU (DNA:RNA) RNA: GGGAGACCGGAAUUCAGAUUGUCCUCUCGCUUUAAAUCCCGUCGUAGCCACCA DNA 1: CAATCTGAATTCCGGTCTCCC DNA 2: TGGTGGCTACGACGGGATT — recorded binding signal = 0.0104 KA relative to UGCAUGU

Entry AGUCCAG (DNA:RNA) RNA: GGGAGACCGGAAUUCAGAUUGUCCAGUCCAGUUAAAUCCCGUCGUAGCCACCA DNA 1: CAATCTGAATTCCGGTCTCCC DNA 2: TGGTGGCTACGACGGGATT — recorded binding signal = 0.00711 KA relative to UGCAUGU
